Below, each entry is listed with its recorded Jurkat Cell Binding (FOI).
- system: T1, human CD3 expressed on cells (human, UniProt P07766 23-207; P04234 22-171; P09693 23-182)
- T1 construct: whole, on cells; CD3 complex on Jurkat cells and on human primary T cells
- T1 sequence (P07766 23-207, chain 1 of 3): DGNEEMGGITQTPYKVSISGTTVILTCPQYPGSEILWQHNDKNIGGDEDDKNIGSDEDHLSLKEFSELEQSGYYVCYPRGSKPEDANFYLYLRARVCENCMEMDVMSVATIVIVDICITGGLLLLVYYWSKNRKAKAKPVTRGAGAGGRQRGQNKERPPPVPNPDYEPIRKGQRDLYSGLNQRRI
- T1 sequence (P04234 22-171, chain 2 of 3): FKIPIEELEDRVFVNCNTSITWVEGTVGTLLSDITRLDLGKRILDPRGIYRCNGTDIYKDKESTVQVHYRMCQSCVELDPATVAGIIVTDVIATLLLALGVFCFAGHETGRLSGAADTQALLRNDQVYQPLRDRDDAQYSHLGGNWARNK
- T1 sequence (P09693 23-182, chain 3 of 3): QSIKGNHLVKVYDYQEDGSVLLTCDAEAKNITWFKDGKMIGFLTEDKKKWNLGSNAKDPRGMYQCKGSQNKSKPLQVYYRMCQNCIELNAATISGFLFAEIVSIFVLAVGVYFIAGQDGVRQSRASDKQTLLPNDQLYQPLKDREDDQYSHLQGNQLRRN
- assay-explanation: flow cytometry, 25 nM
Provide the reading as a plain figure in FOI.

1. mAb 44 (antibody, V domains shown) VH: QAQLVQSGSELKKPGASVKVSCKASGYTFTRHAMNWVRQAPGQGLEWMGWINTNTGNPTYAQGFTGRFVFSLDTSVSTAYLKISSLKAEDTAVYYCVREGDYDFWSGFFNFDYWGQGTLVTVSS VL: DIQMTQSPSSLSASVGDRVTITCRASQGIRNDLGWFQQKPGKAPTRLIYAASSLQSGVPSRFSGSGSGAEFTLTISSLQPEDFATYYCLQHNSYPRTFGQGTKVEIK    131
2. mAb 100 (antibody, V domains shown) VH: QVQLVESGGGVVQPGRSLRLSCVASGFTFRGYGMHWVRQAPGKGLEWVAIIYYDGKNKYYADSVKGRFTISRDNSKNTLYLQMNSLRVEDTALYYCARGGGYNWFDPWGQGTLVTVSS VL: DIQMTQSPSSLSASVGDRVTITCRASQSISTYLNWYQQKPGKAPKLLIYTASSLQSGVPSRFSGSGSGTVFTLTISSLQPEDFAIYYCQRSYSPPFTFGPGTRLDIK    241
3. mAb 54 (antibody, V domains shown) VH: EVQLEESGGGLVQPGGSLRLSCAASGFTFSRYSMNWVRQAPGKGLEWFSYISSSSRTIYYADSVKGRFTMSRDNAKNSLYLQMNSLRDEDTAVYFCARGDYYDSEGMDVWGKGTTVTVSS VL: DIQMTQSPSTLSASVGDRVTITCRASQTITTWLAWYQQKPGKAPKLLIYKASTLESGVPSRFSGSGSGTEFTLTISSLQPDDFATYHCQQYKTFSYTFGQGTKLDIK    111
4. mAb 132 (antibody, V domains shown) VH: DVQLVESGGGTVKTGGSLRLSCVASGFSFKKAWMNWVRQAPGKGLEWVGRIKKNSDGGTADYAAPVKGRFTISRDDSKKTLYLQMNSLQTEDTAVYYCTTLDSSSWYVGYYYMDVWGKGTTVTVSS VL: DIQMTQSPSSVSASVGDRVIITCRASQDINNWLAWYQQKPGIAPKLLIYTASSLQSGVPSRFSGSGSVSDFTLTIGSLQPEDFATYYCQQAHSLPITFGQGTRLEIK    157

Would you kindly share the measured Jurkat Cell Binding (FOI) for mAb 161 (antibody, V domains shown) VH: EVQLVESGGGLVQPGRSLRLSCAASGITFADYTMHWVRQAPGKGLEWVSGISWNSGSIDYADSVKGRFTISRDNAKKTLYLQMNRLRAEDTALYYCAKDSSGYGHYYFYYLDVWGKGTTVTVSS VL: EIVMTQSPATLSVSPGERATLSCRASQSVSNNLAWYQQKPGQAPRLLIYSTSTRATGIPARFSGSRSGTEFTLTISSLQSEDSAVYYCQQYNNWPHFGQGTRLEIK ?
106
